Listed here: items and their measured Relative potency ([drawing 17], I50 relative to CB 3717).
- Assayed system: TS (Mus musculus, UniProt P07607)
- Construct: endogenous in cells
- Sequence (P07607 whole entry): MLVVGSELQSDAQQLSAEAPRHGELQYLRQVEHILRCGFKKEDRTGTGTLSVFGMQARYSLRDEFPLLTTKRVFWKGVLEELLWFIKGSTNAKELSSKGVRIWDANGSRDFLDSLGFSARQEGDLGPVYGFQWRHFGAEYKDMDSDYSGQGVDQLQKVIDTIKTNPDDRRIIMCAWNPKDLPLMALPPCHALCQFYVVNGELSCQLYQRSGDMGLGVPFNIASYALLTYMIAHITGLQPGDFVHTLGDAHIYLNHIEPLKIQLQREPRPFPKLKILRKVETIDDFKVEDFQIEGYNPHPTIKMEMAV
- Assay remarks: Inhibition of TS purified >2,000 fold from L1210 cells by affinity chromatography
- Assay type: biochemical
- Experimental setup: relative to CB 3717 control; higher = weaker
The response must contain the number and no unit.

• C#CCN(Cc1ccc2nc(N)[nH]c(=O)c2c1)c1ccc(C(=O)N[C@@H](CCC(=O)O)C(=O)O)c(C)c1 = 1.1

Reported Relative potency ([drawing 17], I50 relative to CB 3717) for Nc1nc(O)c2cc(CN(CCF)c3ccc(C(=O)N[C@@H](CCC(=O)O)C(=O)O)cc3)ccc2n1 was 6.8

// field: Relative potency ([drawing 17], I50 relative to CB 3717); key: C#CCN(Cc1ccc2nc(N)[nH]c(=O)c2c1)c1ccc(C(=O)N[C@@H](CC(=O)O)C(=O)O)cc1 ; value = 1.6

Form: compound = Nc1nc(O)c2cc(CN(CCCO)c3ccc(C(=O)N[C@@H](CCC(=O)O)C(=O)O)cc3)ccc2n1 ; Relative potency ([drawing 17], I50 relative to CB 3717) = 8.6
